The following compounds each carry a recorded EC50 for Peroxisome proliferator-activated receptor gamma (Homo sapiens, UniProt P37231).

compound: O=C(O)C(Sc1nc(Cl)cc(Nc2ccc(Cl)cc2)n1)c1cccc2ccccc12 (stereo not given)
target_under_test: Peroxisome proliferator-activated receptor gamma (Homo sapiens, UniProt P37231)
Sequence (P37231 whole entry): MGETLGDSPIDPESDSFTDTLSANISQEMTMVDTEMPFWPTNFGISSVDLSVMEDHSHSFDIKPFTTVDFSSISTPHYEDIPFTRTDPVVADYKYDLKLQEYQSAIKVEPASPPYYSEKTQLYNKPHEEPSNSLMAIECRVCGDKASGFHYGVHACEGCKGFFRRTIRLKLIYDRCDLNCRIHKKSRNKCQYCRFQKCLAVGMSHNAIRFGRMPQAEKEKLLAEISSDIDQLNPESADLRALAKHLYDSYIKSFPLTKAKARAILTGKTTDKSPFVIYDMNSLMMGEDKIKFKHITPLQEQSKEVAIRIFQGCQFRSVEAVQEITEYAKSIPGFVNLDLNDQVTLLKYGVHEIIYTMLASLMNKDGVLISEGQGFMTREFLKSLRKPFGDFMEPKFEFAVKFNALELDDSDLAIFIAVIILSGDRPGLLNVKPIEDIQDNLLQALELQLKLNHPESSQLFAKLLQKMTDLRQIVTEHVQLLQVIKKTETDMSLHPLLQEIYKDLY
EC50 [µM]: 9
//
compound: O=C(O)C(Sc1nc(Cl)cc(NCCCc2ccccc2)n1)c1cccc2ccccc12 (stereo not given)
target_under_test: Peroxisome proliferator-activated receptor gamma (Homo sapiens, UniProt P37231)
EC50 [µM]: 8.9
//
compound: O=C(O)C(Sc1nc(Cl)cc(Nc2cccc(Cl)c2)n1)c1cccc2ccccc12 (stereo not given)
target_under_test: Peroxisome proliferator-activated receptor gamma (Homo sapiens, UniProt P37231)
EC50 [µM]: 7.3
//
compound: Cc1cccc(Nc2cc(Cl)nc(SC(C(=O)O)c3ccc(-c4ccccc4)c4ccccc34)n2)c1C (stereo not given)
target_under_test: Peroxisome proliferator-activated receptor gamma (Homo sapiens, UniProt P37231)
EC50 [µM]: 4.5
//
compound: Cc1ccc(Nc2cc(Cl)nc(SC(C(=O)O)c3cccc4ccccc34)n2)cc1C (stereo not given)
target_under_test: Peroxisome proliferator-activated receptor gamma (Homo sapiens, UniProt P37231)
EC50 [µM]: 7.8
//
compound: CC(C)CCNc1cc(Cl)nc(SC(C(=O)O)c2cccc3ccccc23)n1 (stereo not given)
target_under_test: Peroxisome proliferator-activated receptor gamma (Homo sapiens, UniProt P37231)
EC50 [µM]: 8.9
//
compound: CCCCCCC(Sc1nc(Cl)cc(Nc2cccc(C)c2C)n1)C(=O)O (stereo not given)
target_under_test: Peroxisome proliferator-activated receptor gamma (Homo sapiens, UniProt P37231)
EC50 [µM]: 3.6
//
compound: CC(C)c1ccc(Nc2cc(Cl)nc(SC(C(=O)O)c3cccc4ccccc34)n2)cc1 (stereo not given)
target_under_test: Peroxisome proliferator-activated receptor gamma (Homo sapiens, UniProt P37231)
EC50 [µM]: 7.6
//
compound: O=C(O)C(Sc1nc(Cl)cc(Nc2ccc3ccccc3c2)n1)c1cccc2ccccc12 (stereo not given)
target_under_test: Peroxisome proliferator-activated receptor gamma (Homo sapiens, UniProt P37231)
EC50 [µM]: 6.9
//
compound: O=C(O)C(Sc1nc(Cl)cc(NCCc2ccccc2)n1)c1cccc2ccccc12 (stereo not given)
target_under_test: Peroxisome proliferator-activated receptor gamma (Homo sapiens, UniProt P37231)
EC50 [µM]: 10.8

The measured values listed here are drawn from ChEMBL document CHEMBL1156182.
